Test system: SN12C (Renal)
assay comment: NCI Developmental Therapeutics antiproliferative assay, SN12C
Format: cell-based, human
Okay, here is how we bin by GI50: L (below 2 µM), M (2 µM to below 5 µM), H (5 µM or more)

[[record]]
molecule = "COc1cc2c3c(n(C[C@H](O)CO)c(=O)c2cc1OC)-c1ccccc1C3=O"
category_label = "L"

[[record]]
molecule = "NC[C@H](O)Cn1c2c(c3ccccc3c1=O)C(=O)c1ccccc1-2 [Compound 27d]"
category_label = "L"

[[record]]
molecule = "C[C@@H](O)Cn1c2c(c3ccccc3c1=O)C(=O)c1ccccc1-2 [Compound 27a]"
category_label = "H"


q: State the band of O=C1c2ccccc2-c2c1c1ccccc1c(=O)n2C[C@H](O)[C@@H](O)[C@H](O)CO [Compound 17d]
a: M

q: State the band of O=C1c2ccccc2-c2c1c1ccccc1c(=O)n2C[C@H](O)[C@H](O)[C@H](O)CO [Compound 17b]
a: M

q: State the band of O=C1c2ccccc2-c2c1c1ccccc1c(=O)n2C[C@@H](O)[C@H](O)[C@H](O)CO [Compound 17a]
a: H

q: State the band of C[C@H](O)Cn1c2c(c3ccccc3c1=O)C(=O)c1ccccc1-2 [Compound 27c]
a: M

q: State the band of O=C1c2ccccc2-c2c1c1ccccc1c(=O)n2C[C@H](O)[C@H](O)[C@H](O)[C@H](O)CO [Compound 17h]
a: M
